assayed-target: Galectin-8 (Homo sapiens)
Sequence (O00214 whole entry): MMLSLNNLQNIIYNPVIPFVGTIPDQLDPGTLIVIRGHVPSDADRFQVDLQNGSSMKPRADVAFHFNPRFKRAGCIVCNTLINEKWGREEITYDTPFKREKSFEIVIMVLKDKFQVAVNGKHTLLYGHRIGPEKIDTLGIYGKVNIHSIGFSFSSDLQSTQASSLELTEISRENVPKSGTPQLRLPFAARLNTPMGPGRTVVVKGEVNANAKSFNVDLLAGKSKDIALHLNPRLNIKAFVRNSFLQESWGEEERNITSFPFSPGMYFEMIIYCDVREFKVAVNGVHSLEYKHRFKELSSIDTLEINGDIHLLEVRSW
test-method-notes: Binding affinity to human galactin-8 N terminal domain assessed as dissociation constant by competitive fluorescence polarization assay
quantity: Kd (µM)

A selection of reference data follows.
Query: Write down the reported Kd of `COC(=O)c1ccc2nc(CO[C@H]3[C@@H](O)[C@@H](CO)O[C@@H](OC)[C@@H]3O)n(C)c2c1` , test system: Galectin-8 (Homo sapiens).
Result: 1100

Query: Query `O=C(O)c1ccc2nc(CO[C@@H]3[C@@H](O)[C@@H](Sc4ccc(Cl)c(Cl)c4)O[C@H](CO)[C@@H]3O)[nH]c2c1` next
Result: 2.8

Query: Further, for `CO[C@@H]1O[C@H](CO)[C@H](O)[C@H](OCc2nc3ccccc3s2)[C@H]1O` ?
Result: 870

Query: Lookup `CO[C@@H]1O[C@H](CO)[C@H](O)[C@H](OCc2nc3ccccc3o2)[C@H]1O`
Result: 1600

[a] COC(=O)c1ccccc1-n1cc(CO[C@H]2[C@@H](O)[C@@H](CO)O[C@@H](Sc3ccc(C)cc3)[C@@H]2O)nn1
[b] CCOC(=O)c1ccc2c(c1)nc(CO[C@H]1[C@@H](O)[C@@H](CO)O[C@@H](OC)[C@@H]1O)n2C
Query: I'm curious, which of these has a smaller Kd number: a or b ? # answer = label of selected item
Result: a

[I] COC(=O)c1cccc(-n2cc(CO[C@H]3[C@@H](O)[C@@H](CO)O[C@@H](OC)[C@@H]3O)nn2)c1
[II] COC(=O)c1ccccc1-n1cc(CO[C@H]2[C@@H](O)[C@@H](CO)O[C@@H](OC)[C@@H]2O)nn1
Query: Of I and II , which shows the smaller Kd value? To answer, give the label that identifies your chosen option.
Result: I

###

assayed-target: UniProt O00214
Sequence (O00214 whole entry): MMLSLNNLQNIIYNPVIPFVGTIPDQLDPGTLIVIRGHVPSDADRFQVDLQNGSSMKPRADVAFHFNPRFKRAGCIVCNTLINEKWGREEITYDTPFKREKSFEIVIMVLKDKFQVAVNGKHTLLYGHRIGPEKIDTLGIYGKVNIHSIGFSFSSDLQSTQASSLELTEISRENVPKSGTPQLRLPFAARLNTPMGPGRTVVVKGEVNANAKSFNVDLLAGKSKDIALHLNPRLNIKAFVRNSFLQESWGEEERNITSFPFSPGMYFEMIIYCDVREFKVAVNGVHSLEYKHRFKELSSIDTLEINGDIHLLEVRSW
test-method-notes: Binding affinity to human galactin-8 N terminal domain assessed as dissociation constant by competitive fluorescence polarization assay
quantity: Kd (µM)

Example entries begin here.
Query: Requested field: Kd. Item: `CO[C@@H]1O[C@H](CO)[C@H](O)[C@H](OCc2nc3ccccc3[nH]2)[C@H]1O`
Result: 860

Query: Next up: `COC(=O)c1cccc(-n2cc(CO[C@H]3[C@@H](O)[C@@H](CO)O[C@@H](Sc4ccc(C)cc4)[C@@H]3O)nn2)c1`
Result: 1200

Query: Try the compound `CO[C@@H]1O[C@H](CO)[C@H](O)[C@H](OCc2cn(-c3ccc(C(=O)O)cc3)nn2)[C@H]1O`
Result: 1300

Query: Further, for `Cc1ccc(S[C@@H]2O[C@H](CO)[C@H](O)[C@H](OCc3cn(-c4ccccc4C(=O)O)nn3)[C@H]2O)cc1` ?
Result: 1200

Query: Now give it for `Cc1ccc(S[C@@H]2O[C@H](CO)[C@H](O)[C@H](OCc3cn(-c4cccc(C(=O)O)c4)nn3)[C@H]2O)cc1` too.
Result: 760

Query: Next record, please: `CO[C@@H]1O[C@H](CO)[C@H](O)[C@H](OCc2cn(-c3cccc(C(=O)O)c3)nn2)[C@H]1O`
Result: 640

[1] COC(=O)c1ccc(-n2cc(CO[C@H]3[C@@H](O)[C@@H](CO)O[C@@H](Sc4ccc(C)cc4)[C@@H]3O)nn2)cc1
[2] CO[C@@H]1O[C@H](CO)[C@H](O)[C@H](OCc2nc3ccc(C(=O)O)cc3[nH]2)[C@H]1O
Query: Rank 1 against 2 by their Kd values and give the higher one. Answer = label.
Result: 1
(1: 940 µM, 2: 310 µM)

[I] CO[C@@H]1O[C@H](CO)[C@H](O)[C@H](OCc2nc3ccc(C(=O)O)cc3n2C)[C@H]1O
[II] COC(=O)c1ccc2nc(CO[C@H]3[C@@H](O)[C@@H](CO)O[C@@H](OC)[C@@H]3O)[nH]c2c1
Query: Which one would you say has the larger Kd value: I , or II ? Indicate which entry you chose by stating its label.
Result: II
(II: 1200 µM, I: 190 µM)

###

Target sequence: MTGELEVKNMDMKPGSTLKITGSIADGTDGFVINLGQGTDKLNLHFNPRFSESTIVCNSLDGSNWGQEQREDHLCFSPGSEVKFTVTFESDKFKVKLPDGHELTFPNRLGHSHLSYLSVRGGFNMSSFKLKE
quantity: Kd (µM)
Please give a number only; it is taken to be in µM.

Query: What does the data say about its Kd? Entry: `Cn1c(CO[C@@H]2[C@@H](O)[C@@H](Sc3ccc(Cl)c(Cl)c3)O[C@H](CO)[C@@H]2O)nc2ccc(C(=O)O)cc21`
Result: 220

###

Entries and their Kd values follow.
assayed-target: UniProt:P56470
test-method-notes: Binding affinity to human galactin-4 C terminal domain assessed as dissociation constant by competitive fluorescence polarization assay
Respond with the bare value in µM.

Query: Hello, I am looking for reported Kd with UniProt:P56470 for `O=C(O)c1ccc2nc(CO[C@@H]3[C@@H](O)[C@@H](Sc4ccc(Cl)c(Cl)c4)O[C@H](CO)[C@@H]3O)[nH]c2c1` . Could you help?
Result: 160

Next:
Query: // lookup Kd | system=UniProt:P56470 | key= `Cn1c(CO[C@@H]2[C@@H](O)[C@@H](Sc3ccc(Cl)c(Cl)c3)O[C@H](CO)[C@@H]2O)nc2ccc(C(=O)O)cc21`
Result: 120

###

assayed-target: Galectin-4 (Homo sapiens)
Sequence (P56470 whole entry, the tested form may be a part): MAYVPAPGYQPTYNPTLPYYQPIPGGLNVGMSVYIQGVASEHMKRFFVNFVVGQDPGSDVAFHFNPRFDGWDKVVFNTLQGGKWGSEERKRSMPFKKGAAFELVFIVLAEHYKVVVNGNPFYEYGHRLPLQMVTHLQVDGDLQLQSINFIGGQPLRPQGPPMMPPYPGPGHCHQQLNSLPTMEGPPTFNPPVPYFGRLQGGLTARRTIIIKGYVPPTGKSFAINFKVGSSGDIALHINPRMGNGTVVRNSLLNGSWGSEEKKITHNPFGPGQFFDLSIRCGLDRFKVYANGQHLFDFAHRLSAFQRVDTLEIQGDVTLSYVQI
test-method-notes: Binding affinity to human galactin-4 N terminal domain assessed as dissociation constant by competitive fluorescence polarization assay
Reported values of Kd for individual entries
All answers are understood in µM, so give the number only.

Query: # query: Kd of entry `O=C(O)c1ccc2nc(CO[C@@H]3[C@@H](O)[C@@H](Sc4ccc(Cl)c(Cl)c4)O[C@H](CO)[C@@H]3O)[nH]c2c1`
Result: 78

Could you now consider this next compound?
Query: Sample `Cn1c(CO[C@@H]2[C@@H](O)[C@@H](Sc3ccc(Cl)c(Cl)c3)O[C@H](CO)[C@@H]2O)nc2ccc(C(=O)O)cc21` — what was its Kd?
Result: 130

###

assayed-target: UniProt:O00214
test-method-notes: Binding affinity to galectin-8 N-terminal domain (unknown origin)
quantity: Kd (µM)

Query: Suppose we examine the molecule `CO[C@@H]1O[C@H](CO)[C@H](O)[C@H](OCc2ccc3ccccc3n2)[C@H]1O` ; what Kd value has been reported?
Result: 700

[P] CO[C@@H]1O[C@H](CO)[C@H](O)[C@H](OCc2ccc3ccc(C(=O)O)cc3n2)[C@H]1O
[Q] O=C(O)c1ccc2ccc(CO[C@@H]3[C@@H](O)[C@@H](Sc4ccc(Cl)c(Cl)c4)O[C@H](CO)[C@@H]3O)nc2c1
Query: Between P and Q , which one shows the larger Kd value? Kindly give the label for the entry you pick.
Result: P

###

assayed-target: UniProtKB O00214
test-method-notes: Binding affinity to human galactin-8 C terminal domain assessed as dissociation constant by competitive fluorescence polarization assay
quantity: Kd (µM)
Report the value in µM with no unit label.

Query: Query for UniProtKB O00214: what Kd does the record show for `Cn1c(CO[C@@H]2[C@@H](O)[C@@H](Sc3ccc(Cl)c(Cl)c3)O[C@H](CO)[C@@H]2O)nc2ccc(C(=O)O)cc21` ?
Result: 760

Pending compound:
Query: Recall the recorded Kd for `O=C(O)c1ccc2nc(CO[C@@H]3[C@@H](O)[C@@H](Sc4ccc(Cl)c(Cl)c4)O[C@H](CO)[C@@H]3O)[nH]c2c1` with UniProtKB O00214 and state it.
Result: 450
